# assay target: catalytic subunit of human protein kinase CK2 (hCK2α) (Homo sapiens)
# Construct: made in house
# Sequence (P68400 whole entry): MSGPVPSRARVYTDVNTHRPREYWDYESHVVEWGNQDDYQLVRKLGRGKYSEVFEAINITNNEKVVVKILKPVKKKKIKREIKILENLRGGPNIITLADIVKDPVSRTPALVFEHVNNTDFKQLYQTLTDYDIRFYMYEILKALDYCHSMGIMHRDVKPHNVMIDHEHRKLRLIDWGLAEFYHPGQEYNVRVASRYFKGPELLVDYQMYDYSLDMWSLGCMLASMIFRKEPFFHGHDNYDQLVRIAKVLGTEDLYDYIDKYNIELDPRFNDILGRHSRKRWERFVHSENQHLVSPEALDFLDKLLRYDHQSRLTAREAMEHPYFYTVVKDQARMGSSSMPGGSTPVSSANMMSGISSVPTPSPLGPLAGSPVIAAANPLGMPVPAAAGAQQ
# assay protocol: Reverse ITC (ligand titrated with hCK2α), one type of binding sites
# conditions used: protein as titrant, 25°C
pKd overview
When answering, recall that pKd equals minus log10 of the concentration in mol/L, and write that number alone.

Brc1ccc2nn[nH]c2c1 [5-BrBt]    6.53

The value of pKd recorded for Brc1cc2[nH]nnc2c(Br)c1Br [4,5,6-Br3Bt, 4,5,6-tribromobenzotriazole] when tested on catalytic subunit of human protein kinase CK2 (hCK2α) (Homo sapiens) reads 7.38

The value of pKd recorded for Brc1cc2nn[nH]c2cc1Br [5,6-Br2Bt, 5,6-dibromobenzotriazole] when tested on catalytic subunit of human protein kinase CK2 (hCK2α) (Homo sapiens) reads 7.34

====

pKd overview
# assay target: catalytic subunit of human protein kinase CK2 (hCK2α) (Homo sapiens)
# Construct: made in house
# assay protocol: Microscale Thermophoresis (MST), global fit of two independent binding sites
# conditions used: strong site, global fit of 6 pseudo-titrations, read-out: Kd1 (strong binding site)
When answering, recall that pKd equals minus log10 of the concentration in mol/L, and write that number alone.

Brc1cc2[nH]nnc2c(Br)c1Br    7.08
Brc1ccc2nn[nH]c2c1    6.61

Here is another compound to look at.
For `Brc1cc2nn[nH]c2cc1Br` the compound record lists pKd as 7.09
